SYSTEM NAME: F508delCFTR (Homo sapiens, UniProt P13569, DEL508-508)
Construct: expressed in transfected cells; host or cells: CFBE41o- human lung derived epithelial cells (CFBE41o-F508delCFTR-HRP), doxycycline-inducible
Sequence (P13569 with tags, fused parts or gaps DEL508-508): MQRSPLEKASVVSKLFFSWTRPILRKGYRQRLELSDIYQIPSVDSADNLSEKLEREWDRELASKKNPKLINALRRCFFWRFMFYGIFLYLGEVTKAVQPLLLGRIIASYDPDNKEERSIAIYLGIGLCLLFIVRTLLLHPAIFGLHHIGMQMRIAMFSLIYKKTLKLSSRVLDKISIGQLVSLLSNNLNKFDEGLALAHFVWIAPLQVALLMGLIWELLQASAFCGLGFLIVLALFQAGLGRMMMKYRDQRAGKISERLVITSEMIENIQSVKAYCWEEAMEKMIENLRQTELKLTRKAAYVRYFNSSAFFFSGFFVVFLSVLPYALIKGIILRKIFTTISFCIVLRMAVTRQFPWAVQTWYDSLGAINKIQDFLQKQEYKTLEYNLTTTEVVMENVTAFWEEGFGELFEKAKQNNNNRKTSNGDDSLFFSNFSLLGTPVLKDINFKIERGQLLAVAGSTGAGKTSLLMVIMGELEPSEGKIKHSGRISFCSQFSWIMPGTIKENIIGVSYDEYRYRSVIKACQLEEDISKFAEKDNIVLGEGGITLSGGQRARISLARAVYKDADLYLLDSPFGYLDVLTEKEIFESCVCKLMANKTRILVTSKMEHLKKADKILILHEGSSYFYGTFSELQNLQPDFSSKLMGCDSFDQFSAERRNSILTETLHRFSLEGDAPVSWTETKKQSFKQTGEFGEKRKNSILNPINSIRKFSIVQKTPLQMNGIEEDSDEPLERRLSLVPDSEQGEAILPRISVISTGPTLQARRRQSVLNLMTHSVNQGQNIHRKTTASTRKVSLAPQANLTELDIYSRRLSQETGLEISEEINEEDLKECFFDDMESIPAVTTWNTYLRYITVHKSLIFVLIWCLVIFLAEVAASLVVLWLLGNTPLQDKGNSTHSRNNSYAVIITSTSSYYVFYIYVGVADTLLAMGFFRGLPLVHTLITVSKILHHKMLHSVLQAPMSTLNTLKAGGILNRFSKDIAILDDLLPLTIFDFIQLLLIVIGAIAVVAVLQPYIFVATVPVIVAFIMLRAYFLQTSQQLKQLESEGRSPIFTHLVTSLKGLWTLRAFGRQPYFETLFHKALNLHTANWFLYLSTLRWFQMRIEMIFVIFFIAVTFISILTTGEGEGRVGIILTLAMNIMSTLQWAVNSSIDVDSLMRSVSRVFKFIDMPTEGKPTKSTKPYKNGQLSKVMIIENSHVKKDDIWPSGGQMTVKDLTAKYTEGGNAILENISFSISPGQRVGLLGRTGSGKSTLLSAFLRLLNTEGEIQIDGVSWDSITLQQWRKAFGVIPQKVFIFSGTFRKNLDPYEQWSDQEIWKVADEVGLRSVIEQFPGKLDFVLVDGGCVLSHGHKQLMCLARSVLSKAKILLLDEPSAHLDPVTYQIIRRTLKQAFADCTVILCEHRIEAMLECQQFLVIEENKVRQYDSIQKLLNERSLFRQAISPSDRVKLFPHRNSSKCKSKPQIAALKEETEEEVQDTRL
TEST SUMMARY: Cell Surface Expression-Horse Radish Peroxidase (CSE-HRP) Assay
Assay type: cell-based
STUDY CONDITIONS: test compound alone, without co-corrector; read-out: EC50 (without co-corrector)
pEC50: −log10 of the molar value.
OUTCOME MEASURE: pEC50

Query: Tell me the measured pEC50 of CCOc1ccc(C(C)(C)COC)cc1C1(C(=O)NS(=O)(=O)c2cccc3nc(C)ccc23)CC1 , please.
Reply: > 5.52

Query: Tell me the measured pEC50 of CCOc1ccc(OC)c(C2(C(=O)NS(=O)(=O)c3cccc4nc(C)ccc34)CC2)c1 , please.
Reply: > 5.52

Query: Tell me the measured pEC50 of Cc1ccc(C2(C(=O)NS(=O)(=O)Cc3ccccc3)CC2)cc1 , please.
Reply: < 5.00

Query: Tell me the measured pEC50 of CCc1ccc(O[C@H]2CCOC2)c(C2(C(=O)NS(=O)(=O)c3cccc4nc(C)ccc34)CC2)c1 , please.
Reply: > 5.52

* * *

SYSTEM NAME: F508delCFTR (Homo sapiens, UniProt P13569, DEL508-508)
Construct: expressed in transfected cells; host or cells: CFBE41o- human lung derived epithelial cells (CFBE41o-F508delCFTR-HRP), doxycycline-inducible
TEST SUMMARY: Cell Surface Expression-Horse Radish Peroxidase (CSE-HRP) Assay
Assay type: cell-based
STUDY CONDITIONS: test compound alone, without co-corrector; read-out: EC50 (without co-corrector)
OUTCOME MEASURE: EC50

CCOc1ccc(OC)c(C2(C(=O)NS(=O)(=O)c3cccc4ncccc34)CC2)c1: < 3 µM
COc1ccc(C2CC2)cc1C1(C(=O)NS(=O)(=O)c2cccc3c2CCCN3)CCC1: 3 to 10 µM
COc1cc(C2(C(=O)NS(=O)(=O)c3cccc4nc(N)ccc34)CC2)c(OCC(C)C)cn1: < 3 µM

Query: Tell me the measured EC50 of COc1ccc(C2CCC2)c(C2(C(=O)NS(=O)(=O)c3cccc4nc(C)ccc34)CC2)c1 , please.
Reply: < 3 µM

Query: Tell me the measured EC50 of COc1cc(C2(C(=O)NS(=O)(=O)c3cccc4[nH]ccc34)CC2)c(OCC(C)C)cn1 , please.
Reply: < 3 µM

Query: Tell me the measured EC50 of COc1ncc(C2CCC2)c(C)c1C1(C(=O)NS(=O)(=O)c2cccc3cnn(C)c23)CC1 , please.
Reply: < 3 µM

Query: Tell me the measured EC50 of CCc1cnc(OCC(C)C)c(C2(C(=O)NS(=O)(=O)c3cccc4nc(N)ccc34)CC2)c1 , please.
Reply: < 3 µM

Query: Tell me the measured EC50 of O=C(NS(=O)(=O)c1ccccc1)C1(c2ccccc2)CC1 , please.
Reply: > 10 µM

Query: Tell me the measured EC50 of COc1ccc(C23CC(C2)C3)cc1C1(C(=O)NS(=O)(=O)c2cccc3c2CCCN3)CC1 , please.
Reply: < 3 µM

Query: Tell me the measured EC50 of COCC1(c2ccc(OC)c(C3(C(=O)NS(=O)(=O)c4cccc5nc(C)ccc45)CC3)c2)CC1 , please.
Reply: < 3 µM

Query: Tell me the measured EC50 of CN(C(=O)C1(c2ccc(Cl)cc2Cl)CC1)S(=O)(=O)c1ccc(Cl)cc1 , please.
Reply: > 10 µM

Query: Tell me the measured EC50 of O=C(NS(=O)(=O)C1CCNCC1)C1(c2ccc(Cl)cc2Cl)CC1 , please.
Reply: > 10 µM

* * *

SYSTEM NAME: F508delCFTR (Homo sapiens, UniProt P13569, DEL508-508)
Construct: expressed in transfected cells; host or cells: CFBE41o- human lung derived epithelial cells (CFBE41o-F508delCFTR-HRP), doxycycline-inducible
TEST SUMMARY: Cell Surface Expression-Horse Radish Peroxidase (CSE-HRP) Assay
Format: cell-based
STUDY CONDITIONS: test compound with co-corrector; maximum at any tested concentration
OUTCOME MEASURE: Maximum % activity (with co-corrector)

Solved entries (count: 4):
CC(C)Oc1ccc(C2CCC2)nc1C1(C(=O)NS(=O)(=O)c2cccc3[nH]ccc23)CC1: +++ (≥350)
Cc1cnc(OCC(C)C)c(C2(C(=O)NS(=O)(=O)c3cccc4[nH]ccc34)CC2)c1: +++ (≥350)
COc1cc(C2(C(=O)NS(=O)(=O)c3cccc4ncccc34)CC2)c(Cl)cn1: ++ (≥150 and <350)
COc1cc(OC(C)C)c(C2(C(=O)NS(=O)(=O)c3cccc4[nH]ccc34)CC2)cn1: +++ (≥350)

Read the next record carefully.
Query: Tell me the measured Maximum % activity (with co-corrector) of Cc1ccc2c(S(=O)(=O)NC(=O)C3(c4cc(C5CC5)cnc4N4CCOCC4)CC3)cccc2n1 , please.
Reply: ++ (≥150 and <350)

* * *

SYSTEM NAME: F508delCFTR (Homo sapiens, UniProt P13569, DEL508-508)
Construct: expressed in transfected cells; host or cells: CFBE41o- human lung derived epithelial cells (CFBE41o-F508delCFTR-HRP), doxycycline-inducible
TEST SUMMARY: Cell Surface Expression-Horse Radish Peroxidase (CSE-HRP) Assay;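 as to Maximum % activity (without co-corrector): % of on-plate positive control chromenyl benzoic acid corrector at 2 or 3 µM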
Type: cell-based
STUDY CONDITIONS: without co-corrector; maximum at any tested concentration; read-out: Maximum % activity (without co-corrector)
Recorded Emax, one value per entry.

CCCS(=O)(=O)NC(=O)C1(c2cccc(OC)c2)CCOCC1: < 50%
COc1ccc(C2CCC2)cc1C1(C(=O)NS(=O)(=O)c2cccn3nccc23)CC1: > 150%
O=C(NS(=O)(=O)c1cccc2c1CCCN2)C1(c2ccc(C(F)(F)F)nc2C2CC2)CC1: > 150%

Read the next record carefully.
Query: Tell me the measured Emax of COc1cccc(C2(C(=O)NS(=O)(=O)c3cccc4ccccc34)CC2)c1 , please.
Reply: > 150%

* * *

SYSTEM NAME: F508delCFTR (Homo sapiens, UniProt P13569, DEL508-508)
Construct: expressed in transfected cells; host or cells: CFBE41o- human lung derived epithelial cells (CFBE41o-F508delCFTR-HRP), doxycycline-inducible
TEST SUMMARY: Cell Surface Expression-Horse Radish Peroxidase (CSE-HRP) Assay;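 as to Maximum % activity (without co-corrector): % of on-plate positive control chromenyl benzoic acid corrector at 2 or 3 µM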
Assay type: cell-based
STUDY CONDITIONS: test compound without co-corrector; maximum at any tested concentration; read-out: Maximum % activity (without co-corrector)
Recorded Emax, one value per entry.

Solved entries (count: 4):
CCc1cnc(OCCOC)c(C2(C(=O)NS(=O)(=O)c3cccc4[nH]ccc34)CC2)c1: > 150%
CC(C)COc1ncc(C2CC2)cc1C1(C(=O)NS(=O)(=O)c2cccc3[nH]ccc23)CC1: > 150%
CCc1cnc(OCC2CC2)c(C2(C(=O)NS(=O)(=O)c3cccc4nc(C)ccc34)CC2)c1: > 150%
Cc1cnc(OCC(C)C)c(C2(C(=O)NS(=O)(=O)c3cccc4[nH]ccc34)CC2)c1: > 150%

Query: Tell me the measured Emax of Cc1ccc2c(S(=O)(=O)NC(=O)C3(c4cc(Cl)cnc4N4CCCC4)CC3)cccc2n1 , please.
Reply: > 150%

Query: Tell me the measured Emax of O=C(NS(=O)(=O)c1cccc2ncccc12)C1(c2cc(C3CC3)cnc2N2CCOCC2)CC1 , please.
Reply: 50 to 150%

Query: Tell me the measured Emax of CC(C)Oc1cnc(OC(C)C)c(C2(C(=O)NS(=O)(=O)c3cccc4[nH]ccc34)CC2)c1 , please.
Reply: > 150%

Query: Tell me the measured Emax of CCc1cnc(N(C)C)c(C2(C(=O)NS(=O)(=O)c3cccc4nc(C)ccc34)CC2)c1 , please.
Reply: > 150%

Query: Tell me the measured Emax of Cc1ccc2c(S(=O)(=O)NC(=O)C3(c4nc(OCC(C)C)ccc4OC(C)C)CC3)cccc2n1 , please.
Reply: > 150%

Query: Tell me the measured Emax of Cc1ccc2c(S(=O)(=O)NC(=O)C3(c4cc(C5CC5)cnc4N4CCCC4)CC3)cccc2n1 , please.
Reply: > 150%

Query: Tell me the measured Emax of CCc1cnc(N2CCCC2)c(C2(C(=O)NS(=O)(=O)c3cccc4ncccc34)CC2)c1 , please.
Reply: > 150%

Query: Tell me the measured Emax of CCc1cnc(N2CCC(OC(C)C)CC2)c(C2(C(=O)NS(=O)(=O)c3cccc4ncccc34)CC2)c1 , please.
Reply: > 150%

Query: Tell me the measured Emax of COc1ccc(C2(C(=O)NS(=O)(=O)c3cccc4ncccc34)CC2)c(C)n1 , please.
Reply: 50 to 150%

Query: Tell me the measured Emax of CCc1cnc(OCCOC)c(C2(C(=O)NS(=O)(=O)c3cccc4ncccc34)CC2)c1 , please.
Reply: > 150%

Query: Tell me the measured Emax of CCc1cnc(N2CCC(COC)CC2)c(C2(C(=O)NS(=O)(=O)c3cccc4[nH]ccc34)CC2)c1 , please.
Reply: > 150%

Query: Tell me the measured Emax of COc1ncc(C2(C(=O)NS(=O)(=O)c3cccc4ccccc34)CC2)c(OC)n1 , please.
Reply: < 50%
